I'd be grateful if you could share measured IC50 for these entries.
Target: human NLRP3 (Homo sapiens (Human))
Sequence (Q96P20 whole entry): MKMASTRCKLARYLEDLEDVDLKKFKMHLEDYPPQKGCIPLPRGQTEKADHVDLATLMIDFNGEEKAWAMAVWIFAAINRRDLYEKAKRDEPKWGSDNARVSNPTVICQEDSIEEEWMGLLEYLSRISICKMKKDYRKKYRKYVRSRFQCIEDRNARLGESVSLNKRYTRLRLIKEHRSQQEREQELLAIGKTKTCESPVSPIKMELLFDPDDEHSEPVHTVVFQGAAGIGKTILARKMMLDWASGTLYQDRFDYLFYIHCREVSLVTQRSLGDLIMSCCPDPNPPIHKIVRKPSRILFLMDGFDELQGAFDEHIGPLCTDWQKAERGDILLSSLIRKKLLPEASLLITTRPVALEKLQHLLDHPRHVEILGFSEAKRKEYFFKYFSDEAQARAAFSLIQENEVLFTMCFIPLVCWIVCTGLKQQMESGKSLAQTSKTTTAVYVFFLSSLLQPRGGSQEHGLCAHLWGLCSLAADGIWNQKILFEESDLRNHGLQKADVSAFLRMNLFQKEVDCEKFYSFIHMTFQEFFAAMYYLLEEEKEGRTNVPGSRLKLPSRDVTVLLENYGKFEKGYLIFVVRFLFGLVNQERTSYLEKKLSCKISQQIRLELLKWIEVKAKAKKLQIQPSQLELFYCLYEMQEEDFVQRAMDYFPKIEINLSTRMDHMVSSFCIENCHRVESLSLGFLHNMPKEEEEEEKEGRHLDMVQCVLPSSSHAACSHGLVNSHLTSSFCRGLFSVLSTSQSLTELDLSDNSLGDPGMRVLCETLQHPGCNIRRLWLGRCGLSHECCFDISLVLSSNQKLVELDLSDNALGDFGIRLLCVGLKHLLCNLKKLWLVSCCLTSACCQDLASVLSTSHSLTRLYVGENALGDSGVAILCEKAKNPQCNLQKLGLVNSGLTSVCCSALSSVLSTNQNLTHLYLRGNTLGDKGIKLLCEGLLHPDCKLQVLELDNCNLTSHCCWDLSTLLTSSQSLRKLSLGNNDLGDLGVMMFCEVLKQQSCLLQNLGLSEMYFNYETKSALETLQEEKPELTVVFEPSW
Assay: Scintillation Proximity (SPA) NLRP3 Assay: displacement of 3H-MCC950
Assay type: binding
Details: displacement of 3H-MCC950; read-out: SPA IC50

compound: C[C@H]1CCN(c2nnn[nH]2)C[C@@H](NC(=O)C2(c3ccc(OC(F)F)cc3F)CC2)C1 (single isomer, unassigned)
measure.name: IC50
result: 1 to 10 µM

compound: C[C@@H]1CCN(c2nnn[nH]2)C[C@H](NC(=O)C2(c3cnc(Cl)cc3O)CC2)C1 (single isomer, unassigned) [99A*]
measure.name: IC50
result: < 1 µM

compound: C[C@@H]1CCN(c2nnn[nH]2)C[C@H](NC(=O)C2(c3ccc(C(F)(F)F)c(F)c3O)CC2)C1 (single isomer, unassigned) [31A*]
measure.name: IC50
result: < 1 µM

compound: O=C(N[C@@H]1C[C@H](C(F)(F)F)CN(c2nnn[nH]2)C1)C1(c2ccc(Cl)cc2)CC1 [Compound 45A]
measure.name: IC50
result: 1 to 10 µM

compound: C[C@H]1CCN(c2nnn[nH]2)C[C@H](NC(=O)C2(c3ccc(OC(F)(F)F)cc3)CC2)C1 (single isomer, unassigned) [57C*]
measure.name: IC50
result: > 100 µM

For each of the compounds below, note its IC50.
1. C[C@@H]1C[C@@H](NC(=O)C2(c3ccc(C4CC4)c(F)c3O)CC2)[C@H]2CC[C@@H]1N2c1nnn[nH]1 [83A*]
2. O=C(N[C@@H]1CCCN(c2nnn[nH]2)C1)C1(c2ccc(Br)cc2)CC1 [Compound 39A]

< 1 µM
1 to 10 µM

====

Target: human NLRP3 (Homo sapiens (Human))
Assay: Scintillation Proximity (SPA) NLRP3 Assay: displacement of 3H-MCC950
Assay type: binding
Settings: displacement of 3H-MCC950; read-out: SPA IC50
measure.name: IC50

Below: 6 compounds and their reported IC50.
compound: C[C@H]1CCN(c2nnn[nH]2)C[C@@H](NC(=O)C2(c3ccc(OC(F)(F)F)cc3F)CC2)C1 (single isomer, unassigned) [64D*]
measured.target: human NLRP3 (Homo sapiens (Human))
result: 1 to 10 µM

compound: C[C@H]1CCN(c2nnn[nH]2)C[C@H](NC(=O)C2(c3cc(F)c(C(F)(F)F)cc3F)CC2)C1 (single isomer, unassigned) [7C*]
measured.target: human NLRP3 (Homo sapiens (Human))
result: 50 to 100 µM

compound: C[C@H]1C[C@@H](NC(=O)C2(c3ccc(C4CC4)c(F)c3O)CC2)[C@@H]2CC[C@H]1N2c1nnn[nH]1 [83C*]
measured.target: human NLRP3 (Homo sapiens (Human))
result: > 100 µM

compound: C[C@@H]1C[C@@H](NC(=O)C2(c3ccc(OC(F)F)cc3)CC2)[C@H]2CC[C@@H]1N2c1nnn[nH]1 (single isomer, unassigned) [35A*]
measured.target: human NLRP3 (Homo sapiens (Human))
result: < 1 µM

compound: C[C@H]1C[C@@H](NC(=O)C2(c3ccc(OC(F)F)cc3F)CC2)[C@@H]2CC[C@H]1N2c1nnn[nH]1 (stereo in doubt) [101C*]
measured.target: human NLRP3 (Homo sapiens (Human))
result: > 100 µM

compound: Cc1ccc(C2(C(=O)N[C@@H]3C[C@H](C)CCN(c4nnn[nH]4)C3)CC2)c(O)c1 (single isomer, unassigned) [67A*]
measured.target: human NLRP3 (Homo sapiens (Human))
result: < 1 µM

Identify measured IC50 corresponding to C[C@@H]1CCN(c2nnn[nH]2)C[C@@H]1NC(=O)C1(c2ccc(Cl)cc2)CC1 [Compound 49A]
> 100 µM
